Attribution: patent US20220153746A1

Listing of recorded Tmax by entry.
- method-notes: TD Phase (Groups 1 and 3): plasma and ocular tissue concentrations and pharmacokinetics of Compound 18 and its metabolite Compound 4 after once daily ocular instillation of Compound 18 nanosuspension for 7 days
- Format: in vivo, New Zealand white rabbits
- condition-parameters: male, New Zealand white, rabbit, topical or ocular, 0.8 mg/kg/day; trabecular meshwork, Day 7, from mean concentrations
State just the number; it will be interpreted in h.

chemical-smiles	attribute-measured	result-units	observed-result
CCCc1nn(C)c2c(=O)[nH]c(-c3cc(S(=O)(=O)N4CC(CCCO[N+](=O)[O-])C4)ccc3OCC)nc12	Tmax	h	1

Attention now shifts to the item below.
Look up Tmax: CCCc1nn(C)c2c(=O)[nH]c(-c3cc(S(=O)(=O)N4CC(CCCO)C4)ccc3OCC)nc12
1

====

Listing of recorded Cmax by entry.
- method-notes: TD Phase (Groups 1 and 3): plasma and ocular tissue concentrations and pharmacokinetics of Compound 18 and its metabolite Compound 4 after once daily ocular instillation of Compound 18 nanosuspension for 7 days
- Assay type: in vivo, New Zealand white rabbits
- condition-parameters: male, New Zealand white, rabbit, topical or ocular, 0.8 mg/kg/day; retina, Day 7, from mean concentrations

chemical-smiles	observed-result
CCCc1nn(C)c2c(=O)[nH]c(-c3cc(S(=O)(=O)N4CC(CCCO[N+](=O)[O-])C4)ccc3OCC)nc12	34.8 ng/g

Attention now shifts to the item below.
Look up Cmax: CCCc1nn(C)c2c(=O)[nH]c(-c3cc(S(=O)(=O)N4CC(CCCO)C4)ccc3OCC)nc12
50.9 ng/g

====

- method-notes: TD Phase (Groups 1 and 3): plasma and ocular tissue concentrations and pharmacokinetics of Compound 18 and its metabolite Compound 4 after once daily ocular instillation of Compound 18 nanosuspension for 7 days
- Format: in vivo, New Zealand white rabbits
- condition-parameters: male, New Zealand white, rabbit, trabecular meshwork, other: ocular instillation (eye drop), 0.798 mg/kg/day, TD Phase, Group 3, 2 h, Mean; read-out: Final Compound 18 Trabecular Meshwork Conc.
attribute-measured: concentration at 2 h (ng/g)
State just the number; it will be interpreted in ng/g.

Look up concentration at 2 h: CCCc1nn(C)c2c(=O)[nH]c(-c3cc(S(=O)(=O)N4CC(CCCO[N+](=O)[O-])C4)ccc3OCC)nc12
11.8

====

- method-notes: PK Phase (Group 2): plasma concentrations and pharmacokinetics of Compound 18 and its metabolite Compound 4 after once daily ocular instillation of Compound 18 nanosuspension for 7 days
- Type: in vivo, New Zealand white rabbits
- condition-parameters: male, New Zealand white, rabbit, plasma, other: ocular instillation (eye drop), 0.821 mg/kg/day, 0.5 h; animal 207667; read-out: Day 7 Compound 18 Plasma Concentration
attribute-measured: concentration at 0.5 h (ng/mL)
State just the number; it will be interpreted in ng/mL.

Look up concentration at 0.5 h: CCCc1nn(C)c2c(=O)[nH]c(-c3cc(S(=O)(=O)N4CC(CCCO[N+](=O)[O-])C4)ccc3OCC)nc12
0.0634

====

- method-notes: TD Phase (Groups 1 and 3): plasma and ocular tissue concentrations and pharmacokinetics of Compound 18 and its metabolite Compound 4 after once daily ocular instillation of Compound 18 nanosuspension for 7 days
- Assay type: in vivo, New Zealand white rabbits
- condition-parameters: male, New Zealand white, rabbit, topical or ocular; Cornea; Day 7; Compound 18 0.8 mg/kg ocular instillation once daily; Groups 1 and 3
- Method: This example illustrates the procedures and results for the levels of Compound 18 and its metabolite Compound 4 in plasma and ocular tissues of normotensive rabbits following ocular instillation of Compound 18 once daily for 7 consecutive days. […] Plasma and tissue samples from treated animals (Groups 1-3) were analyzed for Compound 18 and its metabolite Compound 4 concentrations by LC-MS/MS. […] BA Assay: Quantitation Range 0.05 to 100 ng/mL for Compound 18, 0.15 to 100 ng/mL for Compound 4. […]
attribute-measured: Cmax (ng/g)
State just the number; it will be interpreted in ng/g.

compound	Cmax [ng/g]
CCCc1nn(C)c2c(=O)[nH]c(-c3cc(S(=O)(=O)N4CC(CCCO[N+](=O)[O-])C4)ccc3OCC)nc12 [Compound 18]	181

Attention now shifts to the item below.
Look up Cmax: CCCc1nn(C)c2c(=O)[nH]c(-c3cc(S(=O)(=O)N4CC(CCCO)C4)ccc3OCC)nc12 [Compound 4]
3600

====

- method-notes: TD Phase (Groups 1 and 3): plasma and ocular tissue concentrations and pharmacokinetics of Compound 18 and its metabolite Compound 4 after once daily ocular instillation of Compound 18 nanosuspension for 7 days
- Format: in vivo, New Zealand white rabbits
- condition-parameters: male, New Zealand white, rabbit, topical or ocular, 0.8 mg/kg/day; aqueous humor, Day 7, from mean concentrations
attribute-measured: half-life (h)
State just the number; it will be interpreted in h.

Look up half-life: CCCc1nn(C)c2c(=O)[nH]c(-c3cc(S(=O)(=O)N4CC(CCCO)C4)ccc3OCC)nc12 [Compound 4]
1.95

====

- method-notes: TD Phase (Groups 1 and 3): plasma and ocular tissue concentrations and pharmacokinetics of Compound 18 and its metabolite Compound 4 after once daily ocular instillation of Compound 18 nanosuspension for 7 days
- Type: in vivo, New Zealand white rabbits
- condition-parameters: male, New Zealand white, rabbit, topical or ocular; Trabecular Meshwork; Day 7; Compound 18 0.8 mg/kg ocular instillation once daily; Groups 1 and 3
attribute-measured: Tmax (h)
State just the number; it will be interpreted in h.

Look up Tmax: CCCc1nn(C)c2c(=O)[nH]c(-c3cc(S(=O)(=O)N4CC(CCCO)C4)ccc3OCC)nc12 [Compound 4]
1

====

- method-notes: TD Phase (Groups 1 and 3): plasma and ocular tissue concentrations and pharmacokinetics of Compound 18 and its metabolite Compound 4 after once daily ocular instillation of Compound 18 nanosuspension for 7 days
- Format: in vivo, New Zealand white rabbits
- condition-parameters: male, New Zealand white, rabbit, topical or ocular; Vitreous Humor; Day 7; Compound 18 0.8 mg/kg ocular instillation once daily; Groups 1 and 3
attribute-measured: Tmax (h)
State just the number; it will be interpreted in h.

Look up Tmax: CCCc1nn(C)c2c(=O)[nH]c(-c3cc(S(=O)(=O)N4CC(CCCO)C4)ccc3OCC)nc12
1

====

- method-notes: TD Phase (Groups 1 and 3): plasma and ocular tissue concentrations and pharmacokinetics of Compound 18 and its metabolite Compound 4 after once daily ocular instillation of Compound 18 nanosuspension for 7 days
- Assay type: in vivo, New Zealand white rabbits
- condition-parameters: male, New Zealand white, rabbit, plasma, other: ocular instillation, 0.8 mg/kg/day, TD Phase, Group 1, 1 h, Mean, BQL set to 0; read-out: Compound 18 Plasma Conc.
attribute-measured: concentration at 1 h

Look up concentration at 1 h: CCCc1nn(C)c2c(=O)[nH]c(-c3cc(S(=O)(=O)N4CC(CCCO[N+](=O)[O-])C4)ccc3OCC)nc12
0.0407 ng/mL

====

- method-notes: TD Phase (Groups 1 and 3): plasma and ocular tissue concentrations and pharmacokinetics of Compound 18 and its metabolite Compound 4 after once daily ocular instillation of Compound 18 nanosuspension for 7 days
- Type: in vivo, New Zealand white rabbits
- condition-parameters: male, New Zealand white, rabbit, topical or ocular; Vitreous Humor; Day 7; Compound 18 0.8 mg/kg ocular instillation once daily; Groups 1 and 3; read-out: AUC0-8
attribute-measured: AUC(0-t) (ng·h/mL)
State just the number; it will be interpreted in ng·h/mL.

Look up AUC(0-t): CCCc1nn(C)c2c(=O)[nH]c(-c3cc(S(=O)(=O)N4CC(CCCO)C4)ccc3OCC)nc12
9.9

====

Listing of recorded Tmax by entry.
- method-notes: TD Phase (Groups 1 and 3): plasma and ocular tissue concentrations and pharmacokinetics of Compound 18 and its metabolite Compound 4 after once daily ocular instillation of Compound 18 nanosuspension for 7 days
- Assay type: in vivo, New Zealand white rabbits
- condition-parameters: male, New Zealand white, rabbit, topical or ocular, 0.8 mg/kg/day; optic nerve, Day 7, from mean concentrations
State just the number; it will be interpreted in h.

Look up Tmax: CCCc1nn(C)c2c(=O)[nH]c(-c3cc(S(=O)(=O)N4CC(CCCO[N+](=O)[O-])C4)ccc3OCC)nc12 [Compound 18]
2

Look up Tmax: CCCc1nn(C)c2c(=O)[nH]c(-c3cc(S(=O)(=O)N4CC(CCCO)C4)ccc3OCC)nc12 [Compound 4]
1

====

- system-tested: human PDE-5A1 (Homo sapiens)
- method-notes: Human PDE-5A1 inhibition assay (fluorescence polarization, FAM-cGMP)
- Type: biochemical
- condition-parameters: read-out: IC50 (μM) PDE5A1
attribute-measured: IC50

compound	system-tested	observed-result
CCCc1nc(C)c2c(=O)[nH]c(-c3cc(S(=O)(=O)N4CC(CO)C4)ccc3OCC)nn12 [Compound 42]	human PDE-5A1 (Homo sapiens)	< 0.01 µM
CCCc1nc(C)c2c(=O)[nH]c(-c3cc(S(=O)(=O)N4CC(N(C)CCO)C4)ccc3OCC)nn12 [Compound 52]	human PDE-5A1 (Homo sapiens)	< 0.01 µM
CCCc1nn(C)c2c(=O)[nH]c(-c3cc(S(=O)(=O)N4CC(OCCCO)C4)ccc3OCC)nc12 [Compound 26]	human PDE-5A1 (Homo sapiens)	0.01 to 0.1 µM

Attention now shifts to the item below.
Look up IC50: CCCc1nn(C)c2c(=O)[nH]c(-c3cc(S(=O)(=O)N4CC(NCCCCO)C4)ccc3OCC)nc12 [Compound 11]
0.01 to 0.1 µM
